Plant response rating, Ragweed values, listed per item
tested on: ragweed (common ragweed, Ambrosia elatior); assay: Test A preemergence; assay type: in vivo; conditions: 125 g ai/ha, preemergence; 0 to 100 scale (0 no effect, 100 complete control)

Reported Plant response rating, Ragweed of O=C1NCC(c2cccc(OCC(F)F)c2)C1C(=O)Nc1ccccc1F (racemic) : 0

Reported Plant response rating, Ragweed of O=C1NCC(c2ccc(Br)cc2)C1C(=O)Nc1cccc(F)c1 (stereo not shown) : 0

Reported Plant response rating, Ragweed of O=C(Nc1cccc(F)c1F)C1C(=O)N(c2ccccc2)CC1c1cccc(C(F)(F)F)c1 (stereo not shown) : 0

New cases:
Reported Plant response rating, Ragweed of Cc1c(F)ccc(NC(=O)C2C(=O)NCC2c2cccc(OC(F)(F)C(F)F)c2)c1F (stereo not shown) : 0

Reported Plant response rating, Ragweed of COc1c(F)ccc(NC(=O)C2C(=O)NCC2c2ccc(F)c(F)c2)c1F (stereo not shown) : 0

Reported Plant response rating, Ragweed of CN1CC(c2ccc(C(F)(F)F)cc2)C(C(=S)Nc2ccccc2F)C1=O (stereo not shown) : 20

Reported Plant response rating, Ragweed of COc1cccc(C2CNC(=O)C2C(=O)Nc2cccc(F)c2F)c1 (racemic) : 0

---

system: giant foxtail (Setaria faberi); test: Test G Post-Emergence Protocol; assay type: in vivo; conditions: Setaria faberi, post-emergence, 312 h, 15.625 g ai/ha, evaluated after 13 days (100=total damage to plant; 0=no damage to plant), read-out: Foxtail, Giant damage rating
pest or weed control at 15.625 g/ha values, listed per item

Example entries and their recorded answers appear below.
Reported pest or weed control at 15.625 g/ha of Cc1cc(NC(=O)[C@@H]2C(=O)N(C)C[C@H]2c2ccc(C(F)(F)F)cc2)sn1 (racemic) : 0%

Reported pest or weed control at 15.625 g/ha of Cc1cc([C@@H]2CN(C)C(=O)[C@H]2C(=O)Nc2cccc(F)c2F)cc(Cl)n1 (racemic) : 40%

Reported pest or weed control at 15.625 g/ha of CN1C[C@H](c2ccc(F)c(F)c2)[C@@H](C(=O)Nc2cnccc2C(F)(F)F)C1=O (racemic) : 0%

Reported pest or weed control at 15.625 g/ha of Cc1nc(C(F)(F)F)ccc1NC(=O)[C@@H]1C(=O)N(C)C[C@H]1c1ccc(C(F)(F)F)cc1 (racemic) : 0%

Reported pest or weed control at 15.625 g/ha of CON1C[C@@H](c2cccc(C(F)(F)F)c2)[C@H](C(=O)Nc2cccc(F)c2F)C1=O (racemic) : 60%

Reported pest or weed control at 15.625 g/ha of CN1C[C@H](c2ccc3c(c2)CCCC3)[C@@H](C(=O)Nc2cccc(F)c2F)C1=O (racemic) : 20%

Reported pest or weed control at 15.625 g/ha of CCOc1ccc([C@@H]2CN(C)C(=O)[C@H]2C(=O)Nc2cccc(F)c2C)cc1Cl (racemic) : 20%

Reported pest or weed control at 15.625 g/ha of CN1C[C@H](c2ccc(C#N)c(C(F)(F)F)c2)[C@@H](C(=O)Nc2ccccc2S(C)(=O)=O)C1=O (racemic) : 0%

Consider the record given below.
Reported pest or weed control at 15.625 g/ha of COc1cc([C@@H]2CN(C)C(=O)[C@H]2C(=O)Nc2cccc(F)c2F)ccn1 (racemic) : 60%

---

test system: ragweed (common ragweed, Ambrosia elatior); experiment: Test A postemergence; type: in vivo; details: Ambrosia artemisiifolia, post-emergence, 240 h, 125 g ai/ha, postemergence; visual injury on 0 to 100 scale (0 no effect, 100 complete control), approx. 10 d; read-out: Ragweed plant response rating
MEASURED_METRIC: pest or weed control at 125 g/ha (%)
Answer with a number only, understood to be in %.

Example entries and their recorded answers appear below.
Reported pest or weed control at 125 g/ha of CC(C)Oc1ccc([C@H]2CNC(=O)[C@@H]2C(=O)Nc2ccccc2F)cc1 : 0

Reported pest or weed control at 125 g/ha of Cc1ccc([C@H]2CNC(=O)[C@@H]2C(=O)Nc2ccccc2F)cc1C : 0

Reported pest or weed control at 125 g/ha of COc1cccc([C@H]2CN(C)C(=O)[C@@H]2C(=O)Nc2ccc(F)c(F)c2F)c1 : 0

Reported pest or weed control at 125 g/ha of CC(C)COc1cccc([C@H]2CN(C)C(=O)[C@@H]2C(=O)Nc2ccc(F)cc2F)c1 : 0

New cases:
Reported pest or weed control at 125 g/ha of CN1C[C@H](c2cc(F)cc(F)c2)[C@@H](C(=O)Nc2ncccc2Cl)C1=O : 0

Reported pest or weed control at 125 g/ha of CN1C[C@H](c2ccc(C(F)(F)F)cn2)[C@@H](C(=O)Nc2cccc(F)c2F)C1=O : 30

Reported pest or weed control at 125 g/ha of O=C(Nc1ccccc1F)[C@H]1C(=O)N(C2CC2)CC[C@@H]1c1ccccc1 : 0

---

system: pigweed (Amaranthus retroflexus); experiment: Test A preemergence; type: in vivo; conditions: Preemergence, 500 g ai/ha, visual injury approx. 10 d
Description: […]
MEASURED_METRIC: Pigweed plant response rating (0 to 100 scale, 0 is no effect, 100 is complete control)
Reply briefly: the number, and no unit.

Example entries and their recorded answers appear below.
Reported Pigweed plant response rating (0 to 100 scale, 0 is no effect, 100 is complete control) of O=C1NCC(c2ccc(Oc3ccccc3)cc2)C1C(=O)Nc1ccc(F)c(F)c1F (racemic) : 0

Reported Pigweed plant response rating (0 to 100 scale, 0 is no effect, 100 is complete control) of O=C1NCC(c2ccc(Br)cc2)C1C(=O)Nc1ccc(F)cc1F (stereo not shown) : 30

Reported Pigweed plant response rating (0 to 100 scale, 0 is no effect, 100 is complete control) of O=C1NCC(c2cccc(C(F)(F)F)c2)C1C(=O)Nc1ccccc1O (stereo not shown) : 0

Reported Pigweed plant response rating (0 to 100 scale, 0 is no effect, 100 is complete control) of CN1CC(c2ccc(C(F)(F)F)c(F)c2)C(C(=O)Nc2ccccc2S(C)(=O)=O)C1=O (stereo not shown) : 90

New cases:
Reported Pigweed plant response rating (0 to 100 scale, 0 is no effect, 100 is complete control) of CN1CC(c2ccc(C(F)(F)F)cc2)C(C(=S)Nc2ccccc2F)C1=O (stereo not shown) : 80

Reported Pigweed plant response rating (0 to 100 scale, 0 is no effect, 100 is complete control) of COc1c(F)ccc(NC(=O)C2C(=O)N(C)CC2c2cccc(OC(F)(F)C(F)F)c2)c1F (stereo not shown) : 50

Reported Pigweed plant response rating (0 to 100 scale, 0 is no effect, 100 is complete control) of CN1CC(c2c(F)cccc2F)C(C(=O)Nc2cccc(F)c2F)C1=O (stereo not shown) : 0

---

pest or weed control at 125 g/ha values, listed per item
system: barnyardgrass (Echinochloa crus-galli); assay: Test A postemergence; assay type: in vivo; conditions: Echinochloa crus-galli, post-emergence, 240 h, 125 g ai/ha, postemergence, visual injury rating after approximately 10 d; read-out: Barnyardgrass plant response rating (0 to 100 scale, 0 no effect, 100 complete control)
Answer with a number only, understood to be in %.

Example entries and their recorded answers appear below.
Reported pest or weed control at 125 g/ha of CN1CC[C@H](c2cccc(OC(F)(F)F)c2)[C@@H](C(=O)Nc2cccc(Cl)c2F)C1=O [Compound 810] : 70

Reported pest or weed control at 125 g/ha of COc1c(F)ccc([C@H]2CNC(=O)[C@@H]2C(=O)Nc2ccc(F)c(F)c2F)c1Cl [Compound 890] : 90

Reported pest or weed control at 125 g/ha of CCOc1ccc([C@H]2CN(C)C(=O)[C@@H]2C(=O)Nc2ccc(F)cc2F)cc1 [Compound 905] : 70

New cases:
Reported pest or weed control at 125 g/ha of COc1ccccc1NC(=O)[C@H]1C(=O)N(C)C[C@@H]1c1ccc(C(F)(F)F)cc1 [Compound 843] : 40

Reported pest or weed control at 125 g/ha of Cc1cc(F)cc([C@H]2CN(C)C(=O)[C@@H]2C(=O)Nc2ccccc2F)c1 [Compound 850] : 90

Reported pest or weed control at 125 g/ha of Cc1cc(F)cc([C@H]2CNC(=O)[C@@H]2C(=O)Nc2ccc(F)c(F)c2F)c1 [Compound 848] : 90

Reported pest or weed control at 125 g/ha of CN1C[C@H](c2cc(F)c(C(F)(F)F)c(F)c2)[C@@H](C(=O)Nc2ccc(F)cc2F)C1=O [Compound 901] : 60

Reported pest or weed control at 125 g/ha of CSc1ccccc1NC(=O)[C@H]1C(=O)N(C)C[C@@H]1c1cc(F)c(F)c(F)c1 [Compound 866] : 60
